System: ATP;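 further: ATP exposure 15 min at 22 °C before imaging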
experimentalProtocol: switch fluorescence ratio, 500 uM ATP over buffer (Cy3 cluster intensity, sum of 5 cycles each) (fold (ratio)); higher = stronger signal-on switching upon ATP binding; sequences stand for … in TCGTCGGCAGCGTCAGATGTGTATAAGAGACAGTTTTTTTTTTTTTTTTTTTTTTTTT…TC
experimentalParameters: aptamer strand: ATP DNA aptamer (quencher-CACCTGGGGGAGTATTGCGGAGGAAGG + anchor), 100 nM annealed; ATP concentration: 500 uM
Provide the reported switch fluorescence ratio of each item.
One number for each entry.

Answer for every listed entry: what is its switch fluorescence ratio? The entries follow.
1. TAGGGCAAGT
2. CAGAGGAGGT
3. AACGTTAGCG
4. GCGAAAGTCG
5. TGGCCGACTT
6. TTACAAGGGC

[1.01, 0.982, 1, 1.02, 1.02, 1.01]

Answer for every listed entry: what is its switch fluorescence ratio? The entries follow.
1. CATAGTTCGT
2. GGGGGCGGTA

1. 0.988
2. 1.02

Answer for every listed entry: what is its switch fluorescence ratio? The entries follow.
1. ATTTCGGTCA
2. TGAGTGGGAG
3. AGAAGTGGTC
4. CGACAGGATG
5. TACATTTTTT
6. GAGCAAAAGG
7. GGGTTGATGA
8. AGGGTGCGGA

0.992
0.998
1.01
1.01
1.01
1
1.01
0.989

Answer for every listed entry: what is its switch fluorescence ratio? The entries follow.
1. AGAGAATGGT
2. GGTGAGACTT
3. GCTCATAGCA
4. TGTTAGTTCT

1. 0.999
2. 1
3. 1.02
4. 1.02

====

System: ATP;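 further: ATP exposure 15 min at 22 °C before imaging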
experimentalProtocol: switch fluorescence ratio, 500 uM ATP over buffer (Cy3 cluster intensity, sum of 5 cycles each) (fold (ratio)); higher = stronger signal-on switching upon ATP binding; sequences stand for … in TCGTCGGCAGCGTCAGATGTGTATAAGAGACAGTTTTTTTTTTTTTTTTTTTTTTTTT…TC
experimentalParameters: aptamer strand: ATP DNA aptamer (quencher-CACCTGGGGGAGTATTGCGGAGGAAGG + anchor), 100 nM annealed; ATP concentration: 500 uM
Provide the reported switch fluorescence ratio of each item.
Numbers only.

Known switch fluorescence ratio results, listed for orientation:
>  <sequenceRecord>
GGCTAGCCAG

>  <endpointValue>
1.01

$$$$
>  <sequenceRecord>
TGATATTTTG

>  <endpointValue>
1

$$$$
>  <sequenceRecord>
TTGCTTGCGG

>  <endpointValue>
0.991

$$$$
>  <sequenceRecord>
TCATTAGGGG

>  <endpointValue>
0.994

$$$$
>  <sequenceRecord>
TCTTTGCGCC

>  <endpointValue>
1.06

$$$$
>  <sequenceRecord>
CGATTTTTTC

>  <endpointValue>
0.977

$$$$
>  <sequenceRecord>
GGGATAATTT

>  <endpointValue>
0.988

$$$$
>  <sequenceRecord>
TAGGGGTCTC

>  <endpointValue>
1.07

$$$$

Answer for every listed entry: what is its switch fluorescence ratio? The entries follow.
1. TTTCGGAACA
2. AGATGGGGTA
3. TTAACTTTCA
4. ACGTGCTTAT
5. GAATTCAGGT

1
0.971
1.04
0.976
0.994

Answer for every listed entry: what is its switch fluorescence ratio? The entries follow.
1. TTTCCGTGAT
2. GTTGGATGCT
3. CCTGTATCTT

[1.92, 0.949, 1.03]
